- Target under test: human PCSK9 (Homo sapiens)
- Experimental details: PCSK9 ligand binding assay (TR-FRET): interference with binding of human PCSK9 to human LDLR
- Assay context: efficacy (Amax), 100% = 1 uM unlabeled human PCSK9, 0% = DMSO
Test readout: Max % inhibition (%)
Note: unit % is implicit; provide only the numeric part.

CCc1ccc(CN2C(=O)C[C@@H]([C@@H]3CCc4ccccc43)C(=O)N(C)C[C@@H](Cc3ccc(Cl)cc3)N(C)C(=O)[C@H](CO)NC(=O)[C@@H]2C)c(Oc2ccc(-c3cnc(CN(C)C)n3C)cc2)c1 [Compound 119] : 94.0

Read the next record carefully.
Requested field: Max % inhibition. Item: C[C@H]1C(=O)N[C@@H](CO)C(=O)N(C)[C@@]2(Cc3ccc(Cl)cc3)CCCN(C2)C(=O)[C@H](Cc2ccccc2)CC(=O)N1Cc1ccc(Cl)cc1Oc1ccc(-c2cnc(CN(C)C)n2C)cc1 [Compound 53]
107.4

---

- Target under test: human PCSK9 (Homo sapiens, UniProt Q8NBP7)
- Sequence (Q8NBP7 153-692): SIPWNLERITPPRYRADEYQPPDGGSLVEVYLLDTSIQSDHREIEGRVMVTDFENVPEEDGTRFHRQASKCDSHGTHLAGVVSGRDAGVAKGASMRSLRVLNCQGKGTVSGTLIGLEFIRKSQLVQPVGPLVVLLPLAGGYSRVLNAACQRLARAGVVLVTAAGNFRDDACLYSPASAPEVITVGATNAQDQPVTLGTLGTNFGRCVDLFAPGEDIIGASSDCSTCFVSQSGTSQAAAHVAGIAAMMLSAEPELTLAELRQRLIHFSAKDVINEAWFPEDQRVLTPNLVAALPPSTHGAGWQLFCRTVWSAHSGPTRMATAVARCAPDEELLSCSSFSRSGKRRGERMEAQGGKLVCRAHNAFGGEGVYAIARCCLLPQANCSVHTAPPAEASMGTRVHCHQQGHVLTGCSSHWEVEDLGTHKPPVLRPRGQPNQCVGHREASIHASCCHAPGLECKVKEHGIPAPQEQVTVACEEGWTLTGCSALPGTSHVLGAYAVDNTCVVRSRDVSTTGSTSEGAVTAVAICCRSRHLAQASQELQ
- Sequence (Q8NBP7 31-152 partner limits assumed): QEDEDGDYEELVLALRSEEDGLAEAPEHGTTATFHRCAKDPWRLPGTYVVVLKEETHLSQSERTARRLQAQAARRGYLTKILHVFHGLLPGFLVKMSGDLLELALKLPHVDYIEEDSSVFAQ
- Experimental details: PCSK9 ligand binding assay (TR-FRET): interference with binding of human PCSK9 to human LDLR
- Assay context: efficacy (Amax), 100% = 1 uM unlabeled human PCSK9, 0% = DMSO
- Protocol: Example 10: PCSK9 Ligand Binding Assay The PCSK9 binding of the compounds of the disclosure were measured using a time resolved fluorescence resonance energy transfer (TR-FRET) assay. This time resolved fluorescence resonance energy transfer (TR-FRET) assay measures the ability of a compound of the present disclosure to interfere with the binding of human PCSK9 to human LDLR, providing measures of both potency (IC50) and efficacy (Amax). Human PCSK9 Alexa Fluor 647 […]
Examples of compounds with documented Max % inhibition follow.
Numbers only; they are read as %.

So what Max % inhibition did C[C@H](NCc1ccc(Cl)cc1Oc1ccc(-c2cnc(CN(C)C)n2C)cc1)C(=O)N[C@H]1COC(=O)C[C@@H](Cc2ccccc2)C(=O)N2CCC[C@@](Cc3ccc(Cl)cc3)(C2)N(C)C1=O [Compound 126] get with human PCSK9 (Homo sapiens, UniProt Q8NBP7)?
100.1

Provide the documented Max % inhibition with human PCSK9 (Homo sapiens, UniProt Q8NBP7) as the system for C[C@H]1C(=O)N[C@@H](CO)C(=O)N[C@@]2(Cc3ccc(Cl)cc3)CCCN(C2)C(=O)[C@H](Cc2ccc(F)c(F)c2F)CC(=O)N1Cc1c(F)cc(Cl)cc1Oc1ccc(-c2cnc(CN(C)C)n2C)cc1 [Compound 48]
102.8

Form: Entry = C[C@H]1C(=O)N[C@@H](CO)C(=O)N[C@@]2(Cc3ccc(Cl)cc3)CCCN(C2)C(=O)[C@H](CC2CC2)CC(=O)N1Cc1c(F)cc(Cl)cc1Oc1ccc(-c2cnc(CNC(C)(C)C)n2C)cc1 [Compound 154] | System = human PCSK9 (Homo sapiens, UniProt Q8NBP7) | Max % inhibition = ____
104.6

Max % inhibition of C[C@H]1C(=O)N[C@@H](CO)C(=O)N[C@@]2(Cc3ccc(Cl)cc3)CCCN(C2)C(=O)[C@H](CC(C)(F)F)CC(=O)N1Cc1c(F)cc(Cl)cc1Oc1ccc(-c2cnc(CN(C)C)n2C)cc1 [Compound 146] on human PCSK9 (Homo sapiens, UniProt Q8NBP7)?
111.4

# returns recorded Max % inhibition (system: human PCSK9 (Homo sapiens, UniProt Q8NBP7)) for COc1cccc2c1OC[C@@H]2[C@@H]1CC(=O)N(Cc2ccc(Cl)cc2Oc2ccc(-c3cnc(CN4CCCC4)n3C)cc2)[C@@H](C)C(=O)N[C@@H](CO)C(=O)N(C)[C@H](Cc2ccc(Cl)cc2)CN(C)C1=O.Cl [Compound 103]
98.4
